Can you tell me log10 of IC50 for the items I'm about to list?
# system_under_test: PIK3CG (human) (UniProt P48736)
# Sequence (P48736 whole entry, looked up): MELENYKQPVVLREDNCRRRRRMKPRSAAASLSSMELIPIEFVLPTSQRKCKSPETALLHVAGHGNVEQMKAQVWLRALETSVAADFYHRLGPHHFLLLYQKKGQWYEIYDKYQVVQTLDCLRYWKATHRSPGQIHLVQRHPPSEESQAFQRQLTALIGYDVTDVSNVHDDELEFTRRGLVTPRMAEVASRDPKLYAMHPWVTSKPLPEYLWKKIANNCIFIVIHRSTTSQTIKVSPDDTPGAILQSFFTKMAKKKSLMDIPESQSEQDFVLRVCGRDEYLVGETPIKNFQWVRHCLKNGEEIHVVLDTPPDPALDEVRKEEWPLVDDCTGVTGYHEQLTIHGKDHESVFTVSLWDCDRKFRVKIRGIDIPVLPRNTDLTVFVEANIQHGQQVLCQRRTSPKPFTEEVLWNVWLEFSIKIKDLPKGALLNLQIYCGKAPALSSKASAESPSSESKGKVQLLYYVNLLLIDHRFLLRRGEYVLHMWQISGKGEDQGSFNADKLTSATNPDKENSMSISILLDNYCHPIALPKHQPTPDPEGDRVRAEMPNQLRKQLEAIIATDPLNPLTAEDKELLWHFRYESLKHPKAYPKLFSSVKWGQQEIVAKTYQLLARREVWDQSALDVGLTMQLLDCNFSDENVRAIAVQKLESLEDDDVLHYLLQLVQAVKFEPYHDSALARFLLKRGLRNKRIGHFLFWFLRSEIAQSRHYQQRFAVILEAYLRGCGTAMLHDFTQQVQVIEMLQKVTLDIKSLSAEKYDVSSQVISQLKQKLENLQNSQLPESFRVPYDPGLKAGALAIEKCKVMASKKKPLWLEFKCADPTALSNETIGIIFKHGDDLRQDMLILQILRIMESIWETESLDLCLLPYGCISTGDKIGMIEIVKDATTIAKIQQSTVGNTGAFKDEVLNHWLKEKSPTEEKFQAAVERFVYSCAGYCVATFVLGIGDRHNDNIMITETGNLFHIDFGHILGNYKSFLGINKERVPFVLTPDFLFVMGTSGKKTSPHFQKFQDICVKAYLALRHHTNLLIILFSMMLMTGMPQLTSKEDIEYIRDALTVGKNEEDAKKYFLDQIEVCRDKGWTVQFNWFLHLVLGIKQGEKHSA
# assay_remarks: Enzyme Assay
Answers are given as log10 of IC50 in nM.

Hello, please tell me recorded log10 of IC50 for this one: CS(=O)(=O)N[C@H]1C[C@@H](c2nc3cccc(Cl)c3c(=O)n2-c2ccccc2)N(c2ncnc3[nH]cnc23)C1
1.23

Hello, please tell me recorded log10 of IC50 for this one: Nc1nc(N2CCC[C@H]2c2nc3cccc(Cl)c3c(=O)n2C2CC2)c2nc[nH]c2n1
2.04

Hello, please tell me recorded log10 of IC50 for this one: Nc1nc(N2CSC[C@H]2c2nc3cccc(Cl)c3c(=O)n2-c2ccccc2)c2nc[nH]c2n1
1.36

Hello, please tell me recorded log10 of IC50 for this one: Cc1nc(N)nc(N2C[C@@H](F)C[C@H]2c2nc3cccc(C(F)(F)F)c3c(=O)n2-c2cccc(F)c2)c1C#N
1.62

Hello, please tell me recorded log10 of IC50 for this one: N#Cc1c(C(F)F)nc(N)nc1N1C[C@@H](O)C[C@H]1c1nc2cccc(C(F)(F)F)c2c(=O)n1-c1ccccc1
1.76

Hello, please tell me recorded log10 of IC50 for this one: CO[C@H]1C[C@@H](c2nc3cccc(Cl)c3c(=O)n2-c2ccccc2)N(c2nc(N)nn3ccnc23)C1
1.89

Hello, please tell me recorded log10 of IC50 for this one: Cc1nc(N)nc(N2C[C@@H](O)C[C@H]2c2nc3cccc(Cl)c3c(=O)n2-c2cccnc2)c1C#N
1.93

Hello, please tell me recorded log10 of IC50 for this one: Cn1nccc1-n1c([C@@H]2CSCN2c2ncnc3[nH]cnc23)nc2cccc(Cl)c2c1=O
2.62

Hello, please tell me recorded log10 of IC50 for this one: COc1ccc(-n2c([C@@H]3CCCN3c3ncnc(N)c3C#N)nc3cccc(Cl)c3c2=O)cn1
2.66

Hello, please tell me recorded log10 of IC50 for this one: Cc1nc(N)nc(N2C[C@@H](O)C[C@H]2c2nc3cccc(C(F)(F)F)c3c(=O)n2N2CCOCC2)c1C#N
2.00

Hello, please tell me recorded log10 of IC50 for this one: Cc1nc(N)nc(N2CCC[C@H]2c2nc3cccc(Cl)c3c(=O)n2N2CCOCC2)c1C#N
1.85

Hello, please tell me recorded log10 of IC50 for this one: N#Cc1c(N)ncnc1N1CCC[C@H]1c1nc2ccc(F)c(C(F)(F)F)c2c(=O)n1-c1ccccc1
2.70

* * *

# system_under_test: UniProtKB P42336
# Sequence (P42336 whole entry, looked up): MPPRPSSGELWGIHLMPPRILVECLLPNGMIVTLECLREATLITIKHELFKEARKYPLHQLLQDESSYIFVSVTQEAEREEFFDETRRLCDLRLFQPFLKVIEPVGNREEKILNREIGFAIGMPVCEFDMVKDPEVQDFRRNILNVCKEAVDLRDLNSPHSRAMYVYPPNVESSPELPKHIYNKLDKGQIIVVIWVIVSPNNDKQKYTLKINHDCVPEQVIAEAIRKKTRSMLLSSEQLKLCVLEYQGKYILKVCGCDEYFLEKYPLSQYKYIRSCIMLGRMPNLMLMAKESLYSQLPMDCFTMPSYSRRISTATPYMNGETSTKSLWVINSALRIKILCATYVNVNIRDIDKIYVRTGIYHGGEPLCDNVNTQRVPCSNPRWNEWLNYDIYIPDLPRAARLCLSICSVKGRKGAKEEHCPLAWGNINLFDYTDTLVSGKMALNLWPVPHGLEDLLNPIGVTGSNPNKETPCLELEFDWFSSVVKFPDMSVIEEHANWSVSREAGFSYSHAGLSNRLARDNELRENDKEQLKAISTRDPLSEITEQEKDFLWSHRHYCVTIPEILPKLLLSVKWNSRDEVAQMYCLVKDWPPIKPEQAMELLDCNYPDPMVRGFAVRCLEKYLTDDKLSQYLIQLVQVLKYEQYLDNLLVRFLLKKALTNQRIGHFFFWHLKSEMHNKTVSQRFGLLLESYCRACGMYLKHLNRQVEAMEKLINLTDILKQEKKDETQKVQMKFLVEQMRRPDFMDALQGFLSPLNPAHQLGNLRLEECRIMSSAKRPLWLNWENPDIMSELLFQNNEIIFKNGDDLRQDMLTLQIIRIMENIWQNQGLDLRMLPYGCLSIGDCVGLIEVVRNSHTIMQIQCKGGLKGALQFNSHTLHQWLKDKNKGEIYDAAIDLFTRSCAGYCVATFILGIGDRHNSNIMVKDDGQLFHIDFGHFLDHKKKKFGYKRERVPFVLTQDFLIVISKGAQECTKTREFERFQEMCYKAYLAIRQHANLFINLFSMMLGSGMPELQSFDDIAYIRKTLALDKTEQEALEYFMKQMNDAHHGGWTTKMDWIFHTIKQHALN
# assay_remarks: Enzyme Assay
IC50 vs 2 µM: less than gives True; not less than gives False.

Is it true that IC50 reported for N#Cc1c(N)ncnc1N1C[C@@H](O)C[C@H]1c1nc2ccc(F)c(Cl)c2c(=O)n1-c1ccccc1 is less than 2 µM?
False

Is it true that IC50 reported for CC1(n2c([C@@H]3CCCN3c3nc(N)nc4[nH]cnc34)nc3cccc(Cl)c3c2=O)CC1 is less than 2 µM?
True

Is it true that IC50 reported for O=c1c2c(Cl)cccc2nc([C@@H]2CCCN2c2ncnc3[nH]cnc23)n1N1CCCCC1 is less than 2 µM?
True

Is it true that IC50 reported for N#Cc1c(C(F)F)nc(N)nc1N1C[C@@H](O)C[C@H]1c1nc2cccc(C(F)(F)F)c2c(=O)n1-c1ccccc1 is less than 2 µM?
False

Is it true that IC50 reported for Cc1nc(N)nc(N2C[C@@H](O)C[C@H]2c2nc3cccc(F)c3c(=O)n2-c2ccccc2)c1C#N is less than 2 µM?
True

Is it true that IC50 reported for N#Cc1c(N)ncnc1N1C[C@@H](O)C[C@H]1c1nc2cccc(Cl)c2c(=O)n1-c1ccccc1 is less than 2 µM?
True

Is it true that IC50 reported for O=c1c2c(Cl)cccc2nc([C@@H]2CSCN2c2ncnc3[nH]cnc23)n1-c1ccccc1 is less than 2 µM?
False

Is it true that IC50 reported for N#Cc1c(N)ncnc1N1CCC[C@H]1c1nc2cccc(O)c2c(=O)n1-c1ccccc1 is less than 2 µM?
True
